Each record here notes measured MIC.
Tested on: Staphylococcus aureus 447
Test: broth micro-dilution MIC
Assay type: cell-based

molecule	MIC, µg/mL
CNC(CC(C)C)C(=O)NC1C(=O)NC(CC(N)=O)C(=O)NC2C(=O)NC3C(=O)NC(C(=O)NC(C(=O)O)c4cc(O)cc(O)c4-c4cc3ccc4O)C(OC3CC(C)(N)C(O)C(C)O3)c3ccc(c(Cl)c3)Oc3cc2cc(c3OC2OC(CO)C(O)C(O)C2OC2CC(C)(NCc3ccc(N4CCCCC4C)cc3)C(O)C(C)O2)Oc2ccc(cc2Cl)C1O (stereo not drawn) [Compound 135]	1
CNC(CC(C)C)C(=O)NC1C(=O)NC(CC(N)=O)C(=O)NC2C(=O)NC3C(=O)NC(C(=O)NC(C(=O)O)c4cc(O)cc(O)c4-c4cc3ccc4O)C(OC3CC(C)(N)C(O)C(C)O3)c3ccc(c(Cl)c3)Oc3cc2cc(c3OC2OC(CO)C(O)C(O)C2OC2CC(C)(NCCCCc3ccc(OC)cc3)C(O)C(C)O2)Oc2ccc(cc2Cl)C1O (stereo not drawn) [Compound 172]	0.5
CNC(CC(C)C)C(=O)NC1C(=O)NC(CC(N)=O)C(=O)NC2C(=O)NC3C(=O)NC(C(=O)NC(C(=O)O)c4cc(O)cc(O)c4-c4cc3ccc4O)C(OC3CC(C)(N)C(O)C(C)O3)c3ccc(c(Cl)c3)Oc3cc2cc(c3OC2OC(CO)C(O)C(O)C2OC2CC(C)(NCc3ccc(OS(C)(=O)=O)cc3)C(O)C(C)O2)Oc2ccc(cc2Cl)C1O (stereo not drawn) [Compound 149]	4
CCOc1ccc2ccccc2c1CNC1(C)CC(OC2C(Oc3c4cc5cc3Oc3ccc(cc3Cl)C(OC3CC(C)(N)C(O)C(C)O3)C3NC(=O)C(NC(=O)C5NC(=O)C(CC(N)=O)NC(=O)C(NC(=O)C(CC(C)C)NC)C(O)c5ccc(c(Cl)c5)O4)c4ccc(O)c(c4)-c4c(O)cc(O)cc4C(C(=O)O)NC3=O)OC(CO)C(O)C2O)OC(C)C1O (stereo not drawn) [Compound 60]	2
CNC(CC(C)C)C(=O)NC1C(=O)NC(CC(N)=O)C(=O)NC2C(=O)NC3C(=O)NC(C(=O)NC(C(=O)O)c4cc(O)cc(O)c4-c4cc3ccc4O)C(OC3CC(C)(N)C(O)C(C)O3)c3ccc(c(Cl)c3)Oc3cc2cc(c3OC2OC(CO)C(O)C(O)C2OC2CC(C)(NCc3ccc(-c4ccccc4[N+](=O)[O-])cc3)C(O)C(C)O2)Oc2ccc(cc2Cl)C1O (stereo not drawn) [Compound 102]	1
